Counter-ions that a name gives are not always drawn.
Task for the reader: assign each of the following compounds its reported melting point.

[[record]]
compound = "CCC[C@@H](C)C[C@H](CN)C(=O)O (as salt: hydrochloride)"
reported = "226.3 to 228 °C"

[[record]]
compound = "CCCC(C)(C)C[C@H](N)CC(=O)O (as salt: hydrochloride)"
reported = "194.2 to 195.2 °C"


// for each compound in input: emit melting point
1. CCCC[C@@H](C)C[C@H](N)CC(=O)O (as salt: hydrochloride)
2. CCC[C@@H](C)C[C@H](N)CC(=O)O.Cl
3. CCCC(C)(C)CC(CN)C(=O)O.Cl (centres unmarked)

[reply]
1: 142.5 to 143.3 °C; 2: 142.5 to 142.7 °C; 3: 229.5 to 231 °C

----------
Exercise: for every item that follows, state its recorded affinity to the α2δ protein.
Target: α2δ-subunit of a calcium channel (Sus scrofa, UniProt A0A287BIN3)
Construct: the α2δ-subunit derived from porcine brain tissue was used; from tissue; host or cells: porcine brain tissue
Sequence (A0A287BIN3 25-1109): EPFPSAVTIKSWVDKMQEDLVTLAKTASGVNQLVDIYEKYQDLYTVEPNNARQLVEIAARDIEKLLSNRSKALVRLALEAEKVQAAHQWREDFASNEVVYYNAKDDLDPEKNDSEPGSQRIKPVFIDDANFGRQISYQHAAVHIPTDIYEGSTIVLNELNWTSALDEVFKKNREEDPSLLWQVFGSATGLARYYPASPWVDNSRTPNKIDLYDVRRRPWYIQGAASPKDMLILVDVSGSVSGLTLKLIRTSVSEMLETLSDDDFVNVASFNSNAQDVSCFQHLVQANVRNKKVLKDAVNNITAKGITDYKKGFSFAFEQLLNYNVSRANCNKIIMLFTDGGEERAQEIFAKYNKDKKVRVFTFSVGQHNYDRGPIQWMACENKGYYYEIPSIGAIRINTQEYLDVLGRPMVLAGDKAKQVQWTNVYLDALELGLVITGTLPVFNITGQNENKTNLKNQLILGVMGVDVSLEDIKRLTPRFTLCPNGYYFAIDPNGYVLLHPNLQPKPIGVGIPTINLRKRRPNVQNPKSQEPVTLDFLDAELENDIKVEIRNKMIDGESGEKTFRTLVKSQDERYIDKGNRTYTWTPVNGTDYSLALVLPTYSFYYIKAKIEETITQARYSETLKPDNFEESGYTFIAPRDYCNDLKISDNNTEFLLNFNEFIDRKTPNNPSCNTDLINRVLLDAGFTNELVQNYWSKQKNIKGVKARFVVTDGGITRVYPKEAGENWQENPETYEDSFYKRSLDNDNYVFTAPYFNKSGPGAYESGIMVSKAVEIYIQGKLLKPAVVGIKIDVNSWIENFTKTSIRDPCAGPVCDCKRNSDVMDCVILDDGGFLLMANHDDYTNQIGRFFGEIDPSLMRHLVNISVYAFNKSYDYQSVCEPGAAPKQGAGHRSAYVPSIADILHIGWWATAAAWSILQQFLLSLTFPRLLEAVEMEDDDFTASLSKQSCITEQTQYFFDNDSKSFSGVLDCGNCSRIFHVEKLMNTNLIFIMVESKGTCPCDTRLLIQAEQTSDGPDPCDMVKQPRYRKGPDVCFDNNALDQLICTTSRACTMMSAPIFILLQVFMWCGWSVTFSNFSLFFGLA
Assay: radioligand binding assay using [3H]-gabapentin
Settings: α2δ-subunit derived from porcine brain tissue
Give bare numbers, in nM.

[[record]]
molecule = "CC(C)CCCC(C)C[C@@H](N)CC(=O)O (stereo partly shown)"
reported = 527

[[record]]
molecule = "CCCC(C)(C)CC(CN)C(=O)O.Cl (stereo not shown)"
reported = 83

[[record]]
molecule = "CCC[C@@H](C)C[C@H](CN)C(=O)O"
reported = 29


// next item, affinity to the α2δ protein requested
α2δ-subunit of a calcium channel (Sus scrofa, UniProt A0A287BIN3) data for CCC[C@H](C)C[C@H](N)CC(=O)O ; its affinity to the α2δ protein: 1000
